# Tested on: NCI-H23
# assay-explanation: NCI tumour cell line growth inhibition, 48 h
The source made the active and inactive calls. No stated cut-off is given here; in the data, active = GI50 up to about 1.1 µM and inactive = higher.
The following compounds are shown together with reported GI50 values.

[
  {
    "compound": "N=C(N)NCCCC(=O)O",
    "GI50": "> 100 µM (inactive)"
  },
  {
    "compound": "O=S(=O)(c1ccccc1)n1c(C(O)c2ccccc2)cc2ccccc21 (centres undefined)",
    "GI50": "18.9 µM (inactive)"
  },
  {
    "compound": "C[n+]1c(Cl)cn2c3nc4ccccc4nc3c([O-])c(C#N)c21",
    "GI50": "> 100 µM (inactive)"
  },
  {
    "compound": "O=C1C2=C(C3=NCCc4c[nH]c1c43)c1c(Br)cc(Br)cc1CCN2",
    "GI50": "1.79 µM (inactive)"
  },
  {
    "compound": "Cc1oc2c(c1C)S(=O)(=O)C(C#N)=C(c1ccccc1)N2",
    "GI50": "> 100 µM (inactive)"
  },
  {
    "compound": "COc1ccc(C2C(Cl)C(=O)N2NC(=O)c2ccccc2O)cc1 (centres undefined)",
    "GI50": "> 100 µM (inactive)"
  },
  {
    "compound": "O=C(CC1(O)C(=O)Nc2c(Cl)cc(Cl)cc21)c1ccccc1 (centres undefined)",
    "GI50": "77.6 µM (inactive)"
  },
  {
    "compound": "O=c1cc(N2CCOCC2)oc2c(-c3ccccc3)cccc12",
    "GI50": "3.76 µM (inactive)"
  },
  {
    "compound": "O=C(CCC(=O)c1ccsc1)c1ccsc1",
    "GI50": "> 100 µM (inactive)"
  }
]

---

# Test system: SNB-75
# assay-explanation: NCI tumour cell line growth inhibition, 48 h
Calls of active or inactive are those of the source. No stated cut-off is given here; in the data, active = GI50 up to about 1.1 µM and inactive = higher.
Outcomes: active, inactive

[
  {
    "compound": "c1sc(NC2=NCCO2)c2c1CCCC2",
    "category": "inactive"
  },
  {
    "compound": "Cc1c2cc[n+](Cc3ccc(I)cc3)cc2c(C)c2c1[nH]c1ccccc12",
    "category": "active"
  },
  {
    "compound": "Fc1ccc(C(=C2CCN(CCc3ccc4[nH]c(=S)[nH]c4c3)CC2)c2ccc(F)cc2)cc1",
    "category": "inactive"
  },
  {
    "compound": "Cc1ccc(Nc2ccc(Nc3ccc(C)cc3S(=O)(=O)O)c3c2C(=O)c2ccccc2C3=O)c(S(=O)(=O)O)c1",
    "category": "inactive"
  },
  {
    "compound": "N#CC1=C(N)N2C(=O)/C(=C/c3ccccc3)SC2C(c2nc3ccccc3[nH]2)=C1c1ccccc1 (stereo not given)",
    "category": "inactive"
  },
  {
    "compound": "CCOC(=O)C1CCC(=O)N1C(=O)c1ccccc1Cl (stereo not given)",
    "category": "inactive"
  },
  {
    "compound": "CC1(C)CC(=O)C(=CNc2nc(-c3cccc([N+](=O)[O-])c3)cs2)C(=O)C1",
    "category": "inactive"
  },
  {
    "compound": "CC1=C(c2cc(C(=O)Nc3cc(C)ccc3C)nc(N)n2)Sc2ccccc2N1",
    "category": "inactive"
  },
  {
    "compound": "c1ccc(-c2cn3c(nc4ccccc43)c(-c3ccccc3)n2)cc1",
    "category": "inactive"
  },
  {
    "compound": "Cc1ccc(C)n1-n1c(Cc2ccc(Cl)cc2)n[nH]c1=O",
    "category": "inactive"
  }
]
